assayed_target: human vasopressin V2 receptor (Homo sapiens, UniProt P30518)
Sequence (P30518 whole entry): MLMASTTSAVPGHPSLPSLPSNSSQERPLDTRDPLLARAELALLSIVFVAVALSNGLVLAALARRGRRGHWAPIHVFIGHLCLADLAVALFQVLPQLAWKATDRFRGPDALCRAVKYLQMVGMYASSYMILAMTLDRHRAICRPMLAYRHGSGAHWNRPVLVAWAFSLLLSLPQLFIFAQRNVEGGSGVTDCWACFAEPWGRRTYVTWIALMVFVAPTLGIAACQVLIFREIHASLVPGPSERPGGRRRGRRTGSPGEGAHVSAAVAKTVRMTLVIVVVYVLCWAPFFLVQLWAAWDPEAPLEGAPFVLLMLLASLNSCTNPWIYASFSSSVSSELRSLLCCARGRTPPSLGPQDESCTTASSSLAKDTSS
protocol_notes: Receptor binding study, [3H]AVP displacement on CHO cell membranes, human V2
measurement_parameters: [3H]AVP displacement, CHO cell membrane, 25° C., one hour; read-out: Human V2 Ki
observation_type: Ki (nM)

>>> print(df.to_string())
                                   compound  data_value
0  C[C@H]1CCN(C(=O)c2ccc(-c3ccc4[nH]ccc4c3)c(OCCCN3CCC(C(N)=O)CC3)c2)c2ccccc2N1          17
1  CCCCCN(C)CCCOc1cc(C(=O)N2CC[C@H](C)Nc3ccccc32)ccc1-c1ccc2[nH]ccc2c1          21
2  CC(=O)N1CCN(CCCOc2cc(C(=O)N3CC[C@H](C)Nc4ccccc43)ccc2-c2ccc3[nH]ccc3c2)CC1         4.6
3  C[C@H]1CCN(C(=O)c2ccc(-c3ccc4[nH]ccc4c3)c(CN3CCOCC3)c2)c2ccccc2N1        0.73
4  CCCCN(C)CCCOc1cc(C(=O)N2CC[C@H](C)Nc3ccccc32)ccc1-c1ccc2[nH]ccc2c1          18

(A) CCCN1CCN(CCCOc2cc(C(=O)N3CC[C@@H](C)Nc4ccccc43)ccc2-c2ccc3[nH]ccc3c2)CC1
(B) COc1cc(C(=O)N2CC[C@H](C)Nc3ccccc32)ccc1-c1ccc2[nH]ccc2c1
(C) CC1CCN(C(=O)c2ccc(-c3ccc4[nH]ccc4c3)c(OCCCCCCN)c2)c2ccccc2N1 (stereo not drawn)
Request: Rank order required: Ki, descending. To answer, arrange all of the labels according to the requested order.
Result: A, C, B
(A: 39 nM, C: 5.2 nM, B: 1.2 nM)

(I) CCCCN1CCN(CCOc2cc(C(=O)N3CC[C@H](C)Nc4ccccc43)ccc2-c2ccc3[nH]ccc3c2)CC1
(II) CCCN(CCC)CCCOc1cc(C(=O)N2CC[C@H](C)Nc3ccccc32)ccc1-c1ccc2[nH]ccc2c1
Request: Quick one: lower Ki, I or II ? Record your answer as the label of the chosen record.
Result: I
